- Test system: K-562
- protocol-summary: MTS cell viability (cytotoxic activity) assay, K-562
- Format: cell-based, Human
- run-conditions: Homo sapiens, K562; K-562, MTS, 72 h; mean ± SD, at least three experiments
- Excerpt: Human colorectal cancer (COLO 205, CCL-222), breast cancer (MCF-7, HTB-22), chronic myelogenous leukemia (K-562, CCL-243), and umbilical vein/vascular endothelium (HUVEC, CRL-1730) cell lines were obtained from the American Type Culture Collection. […]
# note: exactly 60 µM is not below, so it is no (0); use yes (1) for IC50 strictly under it

Example entries and their recorded answers appear below.
[
  {
    "compound": "C=C1CC[C@@H]2C(C)(C)[C@@H](O)CC[C@@]2(C)[C@H]1COc1ccc2ccc(=O)oc2c1 [Gummosin (8), gummosin]",
    "assigned-class": "no (0)"
  },
  {
    "compound": "C=C1CCC2C(C)(C)C(=O)CCC2(C)C1COc1ccc2ccc(=O)oc2c1 (stereo not shown) [Mogoltadone (5), mogoltadone]",
    "assigned-class": "yes (1)"
  }
]

API: query returns whether the compound falls strictly under 60 µM in IC50. Query: C=C1CC[C@@H]2C(C)(C)[C@H](O)CC[C@@]2(C)[C@H]1COc1ccc2ccc(=O)oc2c1 [Farnesiferol A (6), farnesiferol A]
no (0)

API: query returns whether the compound falls strictly under 60 µM in IC50. Query: COc1cccc2c1C(=O)c1c(O)c3c(c(O)c1C2=O)C[C@@](O)(C(=O)CO)C[C@@H]3O[C@H]1C[C@H](N)[C@H](O)[C@H](C)O1 [Doxorubicin, reference compound]
yes (1)

API: query returns whether the compound falls strictly under 60 µM in IC50. Query: CC1=CC[C@@H]2C(C)(C)[C@H](O)CC[C@@]2(C)[C@@H]1COc1ccc2ccc(=O)oc2c1 [Feselol (3), feselol]
no (0)

API: query returns whether the compound falls strictly under 60 µM in IC50. Query: CC(=O)O[C@H]1CC[C@]2(C)[C@H](CC[C@](C)(O)[C@H]2COc2ccc3ccc(=O)oc3c2)C1(C)C [Samarcandin acetate (15), samarcandin acetate]
no (0)

API: query returns whether the compound falls strictly under 60 µM in IC50. Query: C=C1CCC2C(C)(C)C(OC(C)=O)CCC2(C)C1COc1ccc2ccc(=O)oc2c1 (stereo not shown) [Farnesiferol A acetate (7), farnesiferol A acetate]
yes (1)

API: query returns whether the compound falls strictly under 60 µM in IC50. Query: CC(=O)O[C@H]1CC[C@]2(C)[C@H](CC[C@@](C)(O)[C@@H]2COc2ccc3ccc(=O)oc3c2)C1(C)C [Kellerin (12), kellerin]
no (0)

API: query returns whether the compound falls strictly under 60 µM in IC50. Query: CC(=O)O[C@@H]1CC[C@]2(C)[C@H](CC[C@@](C)(O)[C@@H]2COc2ccc3ccc(=O)oc3c2)C1(C)C [Ferukrin acetate (10), ferukrin acetate]
no (0)

API: query returns whether the compound falls strictly under 60 µM in IC50. Query: CC1(O)CCC2C(C)(C)C(O)CCC2(C)C1COc1ccc2ccc(=O)oc2c1 (stereo not shown) [Samarcandin (14), samarcandin]
no (0)

API: query returns whether the compound falls strictly under 60 µM in IC50. Query: CC1(C)[C@H]2CC[C@@](C)(O)[C@H](COc3ccc4ccc(=O)oc4c3)[C@]2(C)CC[C@@H]1O [Deacetylkellerin (11), deacetylkellerin]
no (0)
